The values you see were collected from patent US20240043507A1.

Biological target: T1, SARS-CoV-2 spike protein on authentic virus, strain SARS-CoV-2/human/AUS/VIC01/2020 (Victoria) (SARS-CoV-2, UniProt P0DTC2 14-1273)
T1 construct: whole, on cells
Experiment: calculated from whole-virus ELISA binding and FRNT50
readoutKind: % Occupancy (%)

binder="antibody 158, full-length IgG (antibody, V domains shown, also called mAb 158; 158 IgG) VH: EVQLLESGGDLIQPGGSLRLSCAASGVTVSSNYMSWVRQAPGKGLEWVSIIYPGGSTFYADSVKGRFTISRDNSKNTLYLQMHSLRAEDTAVYYCARDLGSGDMDVWGKGTTVTVSS VL: DIVMTQSPSFLSASVGDRVTITCRASQGISSYLAWYQQKPGKAPKLLIQAASTLQSGVPSRFSGSGSGTEFTLTISSLQPEDFATYYCQQLNSYRYTFGQGTKVEIK" readoutkind="% Occupancy" displayunit=% endpointresult=20.5
binder="Fab of antibody 88 (Fab, V domains shown, also called 88 Fab; Fab 88) VH: QLQLQESGPGLVKPSQTLSLTCTVSGGSISSGSYNWTWIRQPAGKGLEWIGRIYNSGSTNYNPSLKSRVTISVDTSKNQLSLKVRSVTAADTAVYYCARHCSGGTCYPKYYYGMDVWGQGTTVTVSS VL: QSALTQPPSVSEAPRQRVTISCSGSSSNIGNNAVNWYQQFPGKAPKLLIYYDDLLPSGVSDRFSGSKSGTSASLAISGVQSEDEADYYCAAWDDSLNVVVFGGGTKLTVL" readoutkind="% Occupancy" displayunit=% endpointresult=85.2
binder="antibody 159, full-length IgG (antibody, V domains shown) VH: EVQLVESGGGVVQPGRSLRLSCAASGFTFSSYGMHWVRQAPGKGLEWVALISYDGGNRYYADSVKGRFTISRDNSKNTLYLQMNRLRAEDTAMYYCAKDRDDGWDWYYFMDVWGKGTTVTVSS VL: DIQLTQSPGTLSLSPGERATLSCRASQSISGNYLAWYQHKPGQAPRLLIYGASTRATGIPDRFSGSGSGTDFTLTISRLEPEDFAVYYCQQYGSSYTFGQGTKVEIK" readoutkind="% Occupancy" displayunit=% endpointresult=30
binder="Fab of antibody 158 (Fab, V domains shown, also called 158 Fab; Fab 158) VH: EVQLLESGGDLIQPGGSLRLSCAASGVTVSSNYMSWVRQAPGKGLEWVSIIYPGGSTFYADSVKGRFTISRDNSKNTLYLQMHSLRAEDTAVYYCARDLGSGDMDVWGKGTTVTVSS VL: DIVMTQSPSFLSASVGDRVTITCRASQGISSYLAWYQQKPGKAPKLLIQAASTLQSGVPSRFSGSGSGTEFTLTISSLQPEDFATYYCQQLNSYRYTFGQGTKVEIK" readoutkind="% Occupancy" displayunit=% endpointresult=52.7
